// data source = PubChem BioAssay (NCI)

system: NCI/ADR-RES ovarian; test: NCI tumour cell line growth inhibition, 48 h
reportedEndpoint: TGI (µM)
One number for each entry, in µM.

Examples with their reported TGI follow.
COC(=O)c1c2c(c(C)[n+]([O-])c1C)C(=O)C=C(NCc1ccc(F)cc1)C2=O | 5.38
CC(=O)ON1CCCC(P(=O)(OCCSC(=O)C(C)(C)C)OCCSC(=O)C(C)(C)C)C1=O (configuration not stated) | 12.4

q: Using the record for `O=C(Nc1ccc(Br)cc1F)c1cc(Cl)ccc1O` , report its TGI.
a: 5.67

----------
test system: SF-268 CNS; assay: NCI tumour cell line growth inhibition, 48 h
Give TGI for every item shown.

Guide cases for TGI, answers given:
Nc1ncn([C@@H]2O[C@H](CO)[C@@H](O)[C@H]2O)c(=O)n1 | 34.7 µM
Cc1nc(C)c(N2CCN([N+](=O)[O-])CC2)c(=O)[nH]1 | > 100 µM
CCNC(=S)NNC(=O)C12CC3CC(CC(C3)C1)C2 | > 100 µM
CN1CCN(c2ccc(Nc3cc(-c4cccc(-n5ccc6cc(C7CC7)cc(F)c6c5=O)c4CO)cn(C)c3=O)nc2)CC1 | 20.9 µM
Cc1cc(/N=C/c2ccc(N(C)C)cc2)n(-c2ccccc2)n1 | > 100 µM
CCOC(=O)c1c(-c2ccc(O)c(OC)c2)c(C#N)c(=S)n(C2OC(CO)C(O)C(O)C2O)c1-c1ccccc1 (centres undefined) | > 100 µM

Hi! Can you tell me TGI for each of these compounds?
1. Cc1c2n(c(=O)[nH]c1=O)C1OC(CO)C(N=[N+]=[N-])C1O2 (centres undefined)
2. Cc1cc(N[C@@H]2CCC[C@H](Nc3ccnc4cc(Cl)ccc34)C2)nc(N2CCCCCC2)n1
3. Cc1nn(-c2ccccc2)c2c1C(c1cc3ccccc3nc1Cl)NC(=O)N2 (centres undefined)
4. CC1(C)CC(=O)C(C(CC(c2ccccc2)c2cc3c(cc2O)OCO3)C2=C(O)CC(C)(C)CC2=O)=C(O)C1 (centres undefined)
5. O=C1OCC/C1=N/O
6. O=[N+]([O-])c1ccc2occ3c2c1CCC3

a:
1. > 100 µM
2. 3.39 µM
3. > 100 µM
4. > 10 µM
5. > 100 µM
6. > 100 µM

I have 2 compounds here; please give me TGI for each one.
1. C[n+]1c(/C=C/c2c(O)ccc3ccccc23)ccc2ccccc21
2. COc1ccc(-c2nnc3n(C)c(=O)c4ccccc4n23)cc1N

a:
1: 16.7 µM; 2: > 100 µM

----------
system: HOP-92 NSCLC; assay: NCI tumour cell line growth inhibition, 48 h
reportedEndpoint: GI50

Here are 10 compounds together with their reported answers.
C[n+]1c(/C=C/c2c(O)ccc3ccccc23)ccc2ccccc21 | 854 nM
CCOC(=O)N[C@H]1CCc2cc(OC)c(OC)c(OC)c2-c2ccc(SC)c(=O)cc21 | 19.8 nM
Cc1nc(Nc2cccnc2)sc1C(=O)/C=C/c1ccc(F)cc1 | 3100 nM
N=c1c2c(-c3ccccc3)c(-c3ccccc3)n(Cc3ccccc3)c2ncn1C1CCC(O)CC1 (stereo unspecified) | 240 nM
CCC[CH2][Sn]([CH2]CCC)([O]C(=O)c1ccc(OC)c(OC)c1OC)[O][Sn]([CH2]CCC)([CH2]CCC)[O]C(=O)c1ccc(OC)c(OC)c1OC | 159 nM
CN1CCN(c2ccc(Nc3cc(-c4cccc(-n5ccc6cc(C7CC7)cc(F)c6c5=O)c4CO)cn(C)c3=O)nc2)CC1 | 1890 nM
Cc1cc(N[C@@H]2CCC[C@H](Nc3ccnc4cc(Cl)ccc34)C2)nc(N2CCCCCC2)n1 | 1620 nM
Clc1cc2c(c(CSc3nc4ccccc4n4cccc34)c1)OCOC2 | 5360 nM
CC(=O)ON1CCCC(P(=O)(OCCSC(=O)C(C)(C)C)OCCSC(=O)C(C)(C)C)C1=O (stereo unspecified) | 870 nM
O=C(NC[C@H](O)CN1CCc2ccccc2C1)c1cc(NC2COC2)ncn1 | 18100 nM

q: Give GI50 (HOP-92 NSCLC) of the following compound: `O=C(Nc1ccc(Br)cc1F)c1cc(Cl)ccc1O`
a: 174 nM
